Tested on: HeLa Kyoto
Test: thermal stability score vs G1/S (z-score of summed log2 fold changes over temperatures); higher = more thermally stable than in G1/S
Conditions: cell cycle stage: mitosis
Endpoint name: thermal stability score
Give the value as a plain number.

Observed thermal stability score on HeLa Kyoto for MDLAANEISIYDKLSETVDLVRQTGHQCGMSEKAIEKFIRQLLEKNEPQRPPPQYPLLIVVYKVLATLGLILLTAYFVIQPFSPLAPEPVLSGAHTWRSLIHHIRLMSLPIAKKYMSENKGVPLHGGDEDRPFPDFDPWWTNDCEQNESEPIPANCTGCAQKHLKVMLLEDAPRKFERLHPLVIKTGKPLLEEEIQHFLCQYPEATEGFSEGFFAKWWRCFPERWFPFPYPWRRPLNRSQMLRELFPVFTHLPFPKDASLNKCSFLHPEPVVGSKMHKMPDLFIIGSGEAMLQLIPPFQCRRHCQSVAMPIEPGDIGYVDTTHWKVYVIARGVQPLVICDGTAFSEL [C6ORF89] , please.
-2.22

Observed thermal stability score on HeLa Kyoto for MELWPCLAAALLLLLLLVQLSRAAEFYAKVALYCALCFTVSAVASLVCLLRHGGRTVENMSIIGWFVRSFKYFYGLRFEVRDPRRLQEARPCVIVSNHQSILDMMGLMEVLPERCVQIAKRELLFLGPVGLIMYLGGVFFINRQRSSTAMTVMADLGERMVRENLKVWIYPEGTRNDNGDLLPFKKGAFYLAVQAQVPIVPVVYSSFSSFYNTKKKFFTSGTVTVQVLEAIPTSGLTAADVPALVDTCHRAMRTTFLHISKTPQENGATAGSGVQPAQ [AGPAT2] , please.
0.548

Observed thermal stability score on HeLa Kyoto for MPEESSPRRTPQSIPYQDLPHLVNADGQYLFCRYWKPTGTPKALIFVSHGAGEHSGRYEELARMLMGLDLLVFAHDHVGHGQSEGERMVVSDFHVFVRDVLQHVDSMQKDYPGLPVFLLGHSMGGAIAILTAAERPGHFAGMVLISPLVLANPESATTFKVLAAKVLNLVLPNLSLGPIDSSVLSRNKTEVDIYNSDPLICRAGLKVCFGIQLLNAVSRVERALPKLTVPFLLLQGSADRLCDSKGAYLLMELAKSQDKTLKIYEGAYHVLHKELPEVTNSVFHEINMWVSQRTATAGTASPP [MGLL] , please.
-0.539

----------
System: HeLa Kyoto
Assay: solubility in G1/S (NP-40 vs SDS abundance) (log2 ratio); higher = more soluble
Settings: cell cycle stage: G1/S
Endpoint name: solubility in G1/S (log2)
Give the value as a plain number.

Entry under review: MSKGTSSDTSLGRVSRAAFPSPTAAEMAEISRIQYEMEYTEGISQRMRVPEKLKVAPPNADLEQGFQEGVPNASVIMQVPERIVVAGNNEDVSFSRPADLDLIQSTPFKPLALKTPPRVLTLSERPLDFLDLERPPTTPQNEEIRAVGRLKRERSMSENAVRQNGQLVRNDSLWHRSDSAPRNKISRFQAPISAPEYTVTPSPQQARVCPPHMLPEDGANLSSARGILSLIQSSTRRAYQQILDVLDENRRPVLRGGSAAATSNPHHDNVRYGISNIDTTIEGTSDDLTVVDAASLRRQIIKLNRRLQLLEEENKERAKREMVMYSITVAFWLLNSWLWFRR [MFF] . Reported solubility in G1/S (log2)?
0.532
